Molecular target: T1, rat Y2 receptor (rat), Q9ERC0
T1 chain: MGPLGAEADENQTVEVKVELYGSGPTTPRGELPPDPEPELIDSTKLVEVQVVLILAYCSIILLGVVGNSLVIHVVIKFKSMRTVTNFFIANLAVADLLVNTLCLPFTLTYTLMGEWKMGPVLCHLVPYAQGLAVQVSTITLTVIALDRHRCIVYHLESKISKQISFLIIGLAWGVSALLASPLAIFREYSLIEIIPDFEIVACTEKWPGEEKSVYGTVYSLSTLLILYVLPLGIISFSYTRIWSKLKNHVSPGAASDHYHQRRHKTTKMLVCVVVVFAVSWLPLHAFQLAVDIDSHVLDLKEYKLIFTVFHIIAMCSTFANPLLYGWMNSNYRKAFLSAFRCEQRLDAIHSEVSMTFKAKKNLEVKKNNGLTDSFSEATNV
Assay: 125I-PYY displacement, COS-7 membranes
Details: remark: other sources report otherwise
pKi: −log10 of the molar value. Ends that are not written are not given here.
property.label: pKi

Qu. Form field: reported pKi of HYINLITRQRY (ends and bridges not checked) [porcine NPY26-36, P01304]
Ans. < 6.08
